The measurements presented in this section are drawn from paper PMC11638965.

assayed_target: BRD2 (Homo sapiens, UniProt P25440)
Construct: HiBiT, is appended to the N-terminus of endogenous BRD2, BRD3, and BRD4; endogenous in cells
Sequence (P25440 whole entry): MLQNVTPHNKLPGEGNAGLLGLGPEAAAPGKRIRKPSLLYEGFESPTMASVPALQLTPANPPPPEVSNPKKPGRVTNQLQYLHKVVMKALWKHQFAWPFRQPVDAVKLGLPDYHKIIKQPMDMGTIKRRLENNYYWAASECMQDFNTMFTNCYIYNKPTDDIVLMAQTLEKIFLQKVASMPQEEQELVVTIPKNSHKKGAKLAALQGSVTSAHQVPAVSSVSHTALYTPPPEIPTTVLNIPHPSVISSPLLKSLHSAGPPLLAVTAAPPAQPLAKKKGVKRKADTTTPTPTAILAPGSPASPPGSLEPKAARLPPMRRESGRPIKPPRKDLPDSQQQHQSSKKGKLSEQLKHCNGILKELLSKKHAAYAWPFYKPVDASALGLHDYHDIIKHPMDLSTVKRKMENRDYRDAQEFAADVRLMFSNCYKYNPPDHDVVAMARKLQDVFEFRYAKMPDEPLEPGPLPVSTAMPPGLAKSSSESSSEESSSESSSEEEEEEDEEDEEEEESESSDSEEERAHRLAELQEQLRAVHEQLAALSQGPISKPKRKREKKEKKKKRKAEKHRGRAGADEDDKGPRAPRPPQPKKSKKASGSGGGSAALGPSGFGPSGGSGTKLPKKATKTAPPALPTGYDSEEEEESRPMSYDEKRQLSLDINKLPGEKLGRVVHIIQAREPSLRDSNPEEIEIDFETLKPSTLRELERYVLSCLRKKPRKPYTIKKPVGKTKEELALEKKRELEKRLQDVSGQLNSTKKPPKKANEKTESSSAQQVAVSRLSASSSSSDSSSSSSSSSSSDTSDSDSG
experiment: Western blot dose-response degradation in HEK293 cells
Format: cell-based
condition_info: 6 h, mean ± S.E.M. of three experiments, values marked b mean ± S.D. of two
endpoint: DC50 (nM)

Cc1ncsc1-c1ccc([C@H](C)NC(=O)[C@@H]2C[C@@H](O)CN2C(=O)[C@@H](NC(=O)COCC(C)(COCCOCCOCCNc2cc3c(cc2F)C(=O)N(C2CCC(=O)NC2=O)C3=O)COCCOCCOCCOC(=O)C[C@@H]2N=C(c3ccc(Cl)cc3)c3c(sc(C)c3C)-n3c(C)nnc32)C(C)(C)C)cc1 (mixture of isomers) [AB3067 (27)]    15

###

Measured pEC50 of individual entries
System: RKO CRBN/VHL dKO cells
experiment: Cell viability assay (CellTiter-Glo)
Type: cell-based, human
condition_info: Homo sapiens, 72 h, 500 pM to 10 μM, 3 days (Figure 10, Table S6); read-out: EC50 RKO CRBN/VHL dKO
Method: RKO WT, VHL KO, CRBN KO and CRBN/VHL dKO cells were cultured in Dulbecco’s modified Eagle’s medium supplemented with 10% FCS and 1% penicillin–streptomycin. RKO CRBN KO and VHL KO were generated previously.[45] […] Cells were seeded in 96-well plates at a cell density of 3750 cells per well and treated for 3 days with DMSO or drug at ten √10 serial diluted concentrations. […] Luminescence signal was measured on a Multilabel Plate Reader Platform Victor X3 model 2030 (PerkinElmer). […]
pEC50: −log10 of the molar value.
endpoint: pEC50

Cc1ncsc1-c1ccc([C@H](C)NC(=O)[C@@H]2C[C@H](O)CN2C(=O)[C@@H](NC(=O)COCC(C)(COCCOCCOCCNc2cc3c(cc2F)C(=O)N(C2CCC(=O)NC2=O)C3=O)COCCOCCOCCOC(=O)C[C@@H]2N=C(c3ccc(Cl)cc3)c3c(sc(C)c3C)-n3c(C)nnc32)C(C)(C)C)cc1 (mixture of isomers) [cis-AB3067 (94)]    6.09
Cc1ncsc1-c1ccc([C@H](C)NC(=O)[C@@H]2C[C@H](O)CN2C(=O)[C@@H](NC(=O)COCC(C)(COCCOCCOCCNc2cc3c(cc2F)C(=O)N(C2CCC(=O)N(C)C2=O)C3=O)COCCOCCOCCOC(=O)C[C@@H]2N=C(c3ccc(Cl)cc3)c3c(sc(C)c3C)-n3c(C)nnc32)C(C)(C)C)cc1 (mixture of isomers) [neg-cis-AB3067 (95)]    6.18
Cc1ncsc1-c1ccc([C@H](C)NC(=O)[C@@H]2C[C@@H](O)CN2C(=O)[C@@H](NC(=O)COCC(C)(COCCOCCOCCNc2cc3c(cc2F)C(=O)N(C2CCC(=O)N(C)C2=O)C3=O)COCCOCCOCCOC(=O)C[C@@H]2N=C(c3ccc(Cl)cc3)c3c(sc(C)c3C)-n3c(C)nnc32)C(C)(C)C)cc1 (mixture of isomers)    6.38
Cc1ncsc1-c1ccc([C@H](C)NC(=O)[C@@H]2C[C@@H](O)CN2C(=O)[C@@H](NC(=O)COCC(C)(COCCOCCOCCNc2cc3c(cc2F)C(=O)N(C2CCC(=O)NC2=O)C3=O)COCCOCCOCCOC(=O)C[C@@H]2N=C(c3ccc(Cl)cc3)c3c(sc(C)c3C)-n3c(C)nnc32)C(C)(C)C)cc1 (mixture of isomers)    6.09
